Values from patent US20030143634A1

- STUDY TARGET: CAD:CAD link between mediator and detectable conjugates (Homo sapiens, UniProt P62942, F37M)
- Construct: expressed in transfected cells; host or cells: CHO
- Sequence (P62942 2-108 F37M limits assumed): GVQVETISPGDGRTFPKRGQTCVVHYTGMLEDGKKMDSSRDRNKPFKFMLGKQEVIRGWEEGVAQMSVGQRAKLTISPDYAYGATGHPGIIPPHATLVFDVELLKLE
- PROCEDURE DETAILS: 3-part Histone H2B iGRIP system, interaction inhibitor dose-response (extraction procedure, plate reader)
- Type: cell-based
- CONDITION SUMMARY: CHO cells, co-treated with 800 nM AP21967, 2 hours, 37° C.; read-out: EC50 for the prevention of recruitment / removal of EGFP-labelled components from the nuclear compartment
READOUT: EC50

# compound CC[C@H](C(=O)N1CCCCC1C(=O)O[C@H](CCc1ccc(OC)c(OC)c1)c1cccc(OCC(=O)NCCCN(C)C)c1)c1cc(OC)c(OC)c(OC)c1 (stereo partly shown) [AP21998] ; its EC50 = ~1.8 µM

* * *

- STUDY TARGET: CAD:CAD link between mediator and detectable conjugates (Homo sapiens, UniProt P62942, F37M)
- Construct: expressed in transfected cells; host or cells: CHO
- PROCEDURE DETAILS: 3-part ActinPaint iGRIP system, interaction inhibitor dose-response (extraction procedure, plate reader)
- Format: cell-based
- CONDITION SUMMARY: CHO cells, co-treated with 800 nM AP21967, 2 hours, 37° C.; read-out: EC50 for the prevention of recruitment / removal of EGFP-labelled components from the F-actin aggregates
READOUT: EC50

Just so you know, measured EC50 for CC[C@H](C(=O)N1CCCCC1C(=O)O[C@H](CCc1ccc(OC)c(OC)c1)c1cccc(OCC(=O)NCCCN(C)C)c1)c1cc(OC)c(OC)c(OC)c1 (stereo partly shown) came out at ~1100 nM
